- target.of.assay: Arp2/3 complex (yeast) (Saccharomyces cerevisiae, UniProt P32381+P47117, P47117:D12A)
- protocol.summary: fluorescence increase titration, one-site fit
pKd: −log10 of the molar value.

compound	pKd
O=P(O)(O)OP(=O)(O)OP(=O)(O)OC[C@H]1O[C@@H](n2cnc3c2ncn2ccnc32)[C@H](O)[C@@H]1O [etheno-ATP]	4.46

###

- target.of.assay: Arp2/3 complex (yeast) (Saccharomyces cerevisiae, UniProt P32381+P47117, P47117:G358Y)
- protocol.summary: fluorescence increase titration, one-site fit

test.smiles	Kd / µM
O=P(O)(O)OP(=O)(O)OP(=O)(O)OC[C@H]1O[C@@H](n2cnc3c2ncn2ccnc32)[C@H](O)[C@@H]1O	22
